Just for reference, patent US20050009924A1 is where these values come from.

assay.details: MTT relative viability, PhTERT-SEAP (hTERT-BJ1) cells
experimental.setup: human
metric.name: viability at 48 h, 2.2 µM (%)
Enter your answer as a number in %; do not include the unit.

Example molecules with recorded viability at 48 h, 2.2 µM:
chemical.string | viability at 48 h, 2.2 µM, %
Nc1ccccc1Sc1cccc2c1C(=O)c1cccc(Sc3ccccc3N)c1C2=O | 103
O=C1c2cccc(NCCc3ccccc3)c2C(=O)c2cccc(NCCc3ccccc3)c21 | 97
O=C(Oc1cccc2c1C(=O)c1cccc(OC(=O)c3ccccc3)c1C2=O)c1ccccc1 | 103

Query: Reported viability at 48 h, 2.2 µM, molecule Nc1ccc(Sc2cccc3c2C(=O)c2cccc(Sc4ccc(N)cc4)c2C3=O)cc1 : ____
Response: 86

Query: Follow-up entry: O=C1c2cccc(SCc3ccccc3)c2C(=O)c2cccc(SCc3ccccc3)c21
Response: 121

Query: Follow-up entry: Nc1cccc(Sc2cccc3c2C(=O)c2cccc(Sc4cccc(N)c4)c2C3=O)c1
Response: 104

Query: Follow-up entry: COc1ccc(CSc2cccc3c2C(=O)c2cccc(SCc4ccc(OC)cc4)c2C3=O)cc1
Response: 119

Query: Follow-up entry: O=C1c2cccc(SCCc3ccccc3)c2C(=O)c2cccc(SCCc3ccccc3)c21
Response: 91

====

Item-by-item account of viability at 48 h, 31 µM
assay.details: MTT relative viability, PhTERT-SEAP (H1299) cells
experimental.setup: human
Enter your answer as a number in %; do not include the unit.

molecule | metric.name | quantitative.readout
CC(C)Nc1cccc2c1C(=O)c1cccc(NC(C)C)c1C2=O [IVc, 1,5-Bis(isopropylamino)anthraquinone] | viability at 48 h, 31 µM | 111
CC(=O)Nc1ccc(NC(C)=O)c2c1C(=O)c1ccccc1C2=O [VI3, 1,4-Bisacetamido-9,10-anthracenedione] | viability at 48 h, 31 µM | 108

# evaluate next
Query: Reported viability at 48 h, 31 µM, molecule CCCNc1cccc2c1C(=O)c1cccc(NCCC)c1C2=O [IVf, 1,5-Bis(propylamino)anthraquinone] : ____
Response: 98

====

Item-by-item account of viability at 48 h, 1.9 µM
assay.details: MTT relative viability, PhTERT-SEAP (hTERT-BJ1) cells
experimental.setup: human, hTERT-BJ1 cells, stable PhTERT-SEAP reporter clone
Enter your answer as a number in %; do not include the unit.

Example molecules with recorded viability at 48 h, 1.9 µM:
molecule | metric.name | quantitative.readout
O=C(Oc1cccc2c1C(=O)c1cccc(OC(=O)c3cccc(Cl)c3)c1C2=O)c1cccc(Cl)c1 | viability at 48 h, 1.9 µM | 101
O=C(Cc1ccc(F)cc1)Nc1ccc(NC(=O)Cc2ccc(F)cc2)c2c1C(=O)c1ccccc1C2=O [VI32] | viability at 48 h, 1.9 µM | 107
O=C(Oc1cccc2c1C(=O)c1cccc(OC(=O)c3ccccc3Cl)c1C2=O)c1ccccc1Cl | viability at 48 h, 1.9 µM | 107

# evaluate next
Query: Reported viability at 48 h, 1.9 µM, molecule O=C(Oc1cccc2c1C(=O)c1cccc(OC(=O)c3ccc(Cl)cc3)c1C2=O)c1ccc(Cl)cc1 : ____
Response: 111

====

assay.details: MTT relative viability, PCMV-SEAP (hTERT-BJ1) cells
Format: cell-based
experimental.setup: human, stable PCMV-SEAP reporter clone, 2.2 μM
metric.name: viability at 48 h, 2.2 µM

Query: Reported viability at 48 h, 2.2 µM, molecule Nc1ccccc1Sc1cccc2c1C(=O)c1cccc(Sc3ccccc3N)c1C2=O : ____
Response: 108%

====

assay.details: MTT relative viability, PhTERT-SEAP (H1299) cells
experimental.setup: human
metric.name: viability at 48 h, 262 µM
# include the unit after the value

Query: Reported viability at 48 h, 262 µM, molecule CN(C)CCNc1cccc2c1C(=O)c1cccc(NCCN(C)C)c1C2=O : ____
Response: 29%

====

Test system: hTERT-BJ1 cells
assay.details: MTT relative viability, PhTERT-SEAP (hTERT-BJ1) cells
experimental.setup: 19 μM, PhTERT-SEAP (hTERT-BJ1)
metric.name: Relative MTT viability (%)
Enter your answer as a number in %; do not include the unit.

Query: Reported Relative MTT viability (%), molecule O=C(Nc1ccc(NC(=O)c2ccc(Cl)cc2)c2c1C(=O)c1ccccc1C2=O)c1ccc(Cl)cc1 : ____
Response: 103

Query: Follow-up entry: O=C(Nc1ccc(NC(=O)c2ccc(F)cc2F)c2c1C(=O)c1ccccc1C2=O)c1ccc(F)cc1F
Response: 101

Query: Follow-up entry: O=C(Nc1ccc(NC(=O)c2cccc(Cl)c2)c2c1C(=O)c1ccccc1C2=O)c1cccc(Cl)c1
Response: 90

Query: Follow-up entry: O=C(Nc1ccc(NC(=O)c2ccccc2Cl)c2c1C(=O)c1ccccc1C2=O)c1ccccc1Cl
Response: 109

====

assay.details: MTT relative viability, PhTERT-SEAP (H1299) cells
experimental.setup: human
Item-by-item account of viability at 48 h, 20 µM
Enter your answer as a number in %; do not include the unit.

Example compounds with recorded viability at 48 h, 20 µM:
compound | viability at 48 h, 20 µM [%]
CCN(CC)CCC(=O)Nc1ccc(NC(=O)CCN(CC)CC)c2c1C(=O)c1ccccc1C2=O [VI34] | 11
O=C(Cc1cccs1)Nc1ccc(NC(=O)Cc2cccs2)c2c1C(=O)c1ccccc1C2=O [VI25] | 83
O=C(CCc1ccccc1)Oc1cccc2c1C(=O)c1cccc(OC(=O)CCc3ccccc3)c1C2=O [IIIn] | 101
CCN(CC)C(C)C(=O)Nc1ccc(NC(=O)C(C)N(CC)CC)c2c1C(=O)c1ccccc1C2=O (centres unmarked) [VI35] | 77

Query: Reported viability at 48 h, 20 µM, compound O=C(CCC1CCCC1)Nc1ccc(NC(=O)CCC2CCCC2)c2c1C(=O)c1ccccc1C2=O [VI19] : ____
Response: 106

====

assay.details: MTT relative viability, PhTERT-SEAP (hTERT-BJ1) cells
experimental.setup: human, hTERT-BJ1 cells
Item-by-item account of viability at 48 h, 28 µM
Enter your answer as a number in %; do not include the unit.

molecule | unit.of.measure | quantitative.readout
CCCCNc1cccc2c1C(=O)c1cccc(NCCCC)c1C2=O [IVj, 1,5-Bis(butylamino)anthraquinone] | % | 99

# evaluate next
Query: Reported viability at 48 h, 28 µM, molecule CC(C)CNc1cccc2c1C(=O)c1cccc(NCC(C)C)c1C2=O : ____
Response: 103

====

assay.details: MTT relative viability, PhTERT-SEAP (hTERT-BJ1) cells
experimental.setup: human
metric.name: viability at 48 h, 19 µM
# include the unit after the value

Query: Reported viability at 48 h, 19 µM, compound O=C1c2c(O)ccc(O)c2C(=O)c2c(NCCNCCO)ccc(NCCNCCO)c21 [Mitoxantrone, reference compound] : ____
Response: 56%

====

assay.details: MTT relative viability, PhTERT-SEAP (hTERT-BJ1) cells
experimental.setup: human, hTERT-BJ1 cells, stable PhTERT-SEAP reporter clone
Item-by-item account of viability at 48 h, 2 µM
Enter your answer as a number in %; do not include the unit.

compound | metric.name | quantitative.readout
O=C(CCc1ccccc1)Oc1cccc2c1C(=O)c1cccc(OC(=O)CCc3ccccc3)c1C2=O [IIIn] | viability at 48 h, 2 µM | 111
O=C(Cc1cccs1)Nc1ccc(NC(=O)Cc2cccs2)c2c1C(=O)c1ccccc1C2=O [VI25] | viability at 48 h, 2 µM | 116
CCN(CC)CCC(=O)Nc1ccc(NC(=O)CCN(CC)CC)c2c1C(=O)c1ccccc1C2=O [VI34] | viability at 48 h, 2 µM | 83

Query: Reported viability at 48 h, 2 µM, compound CCN(CC)C(C)C(=O)Nc1ccc(NC(=O)C(C)N(CC)CC)c2c1C(=O)c1ccccc1C2=O (centres unmarked) [VI35] : ____
Response: 97

Query: Follow-up entry: O=C(CCC1CCCC1)Nc1ccc(NC(=O)CCC2CCCC2)c2c1C(=O)c1ccccc1C2=O [VI19]
Response: 107

====

System: non-small-cell lung cancer cells H1299
assay.details: MTT relative viability, PhTERT-SEAP (H1299) cells
experimental.setup: 2.0 μM, PhTERT-SEAP(hTERT-H1299)
metric.name: Relative MTT viability (%)
Enter your answer as a number in %; do not include the unit.

Example compounds with recorded Relative MTT viability (%):
compound | Relative MTT viability (%)
O=C(Nc1ccc(NC(=O)c2ccccc2F)c2c1C(=O)c1ccccc1C2=O)c1ccccc1F [VI10] | 116
O=C(Nc1ccc(NC(=O)c2ccc(F)cc2)c2c1C(=O)c1ccccc1C2=O)c1ccc(F)cc1 [VI30] | 110
NCC1CC1CCC(=O)Nc1ccc(NC(=O)CCC2CC2CN)c2c1C(=O)c1ccccc1C2=O (centres unmarked) [VI36] | 106
O=C(Nc1ccc(NC(=O)c2cccc(F)c2)c2c1C(=O)c1ccccc1C2=O)c1cccc(F)c1 [VI12] | 105

Query: Reported Relative MTT viability (%), compound Cc1cc(C(=O)Nc2ccc(NC(=O)c3cc(C)oc3C)c3c2C(=O)c2ccccc2C3=O)c(C)o1 [VI26] : ____
Response: 87
